target.system: T1, full CSP protein (analyte of Example 12) (Plasmodium falciparum (isolate 3D7), UniProt Q7K740 19-374)
T1 construct: not shown: C-terminal tags
T1 sequence (Q7K740 19-374 limits assumed): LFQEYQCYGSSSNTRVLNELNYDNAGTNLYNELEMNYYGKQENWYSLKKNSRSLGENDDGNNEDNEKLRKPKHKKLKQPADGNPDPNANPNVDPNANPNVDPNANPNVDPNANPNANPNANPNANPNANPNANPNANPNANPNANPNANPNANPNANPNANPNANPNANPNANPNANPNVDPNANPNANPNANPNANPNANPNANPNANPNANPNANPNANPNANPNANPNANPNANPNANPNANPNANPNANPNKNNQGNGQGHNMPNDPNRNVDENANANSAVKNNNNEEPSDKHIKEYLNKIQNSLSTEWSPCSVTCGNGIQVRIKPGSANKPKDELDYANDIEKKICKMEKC
assay.overview: SPR, IgG1 from supernatant on anti-human IgG surface, CSP as analyte, 25 C, 1:1 fit
Flag rule - kon less than 500000 M⁻¹ s⁻¹ flags t; the remaining entries get f.

Examples with answers:
1. CL-141779 (antibody, V domains shown, human IgG1, HEK (Expi293F) culture supernatant) VH: QVQLVQSGAEVKKPGASVKVSCKASGYTFTSYAMHWVRQAPGQRLEWMGWINAGNGNTKYSQKFQGRVTITRDTSASTAYMELSSLRSEDTAVYYCARDQYYDILTPYYYYYYGMDVWGQGTTVTVSS VL: QSALTQPASVSGSPGQSITISCTGTSSDVGGYNYVSWYQQHPGKAPKLMIYVVSKRPSGVSNRFSGSKSGNTASLTISGLQAEDEADYYCCSYAGSSTWVFGGGTKLTVL    t
2. CL-141790 (antibody, V domains shown, human IgG1, HEK (Expi293F) culture supernatant) VH: QVQLVQSGAEVKRPGASVKISCKASGYTFTNYAIHWVRQAPGQRLEWMGWINAGNGYTKYSQKFQGRVTITRDTSATSAYLELYSLISEDTAVYYCVRDEYYDSGSSNYYYYGMDVWGQGTTVTVSS VL: QSALTQPASVSGSPGQSITISCTGTSSDVGNYNHVSWYQQHPDKAPKLMIYDVSKRPSGVSNRFSGSKSGNTASLTISGLQAEDEADYYCCSYAGSSTWVFGGGTKLTVL    t
3. Antibody 666, human IgG1 (antibody, V domains shown, human IgG1; also called Ab666) VH: QVQLVQSGAEVKKPGASVKVSCKASGYTFTNYAMHWVRQAPGQRLEWMGWINAGNGNTKYSQNFQGRVTITRDTSASTAYMELSSLRSEDTAVYYCARDEYYASGSYYDYYYYGMDVWGQGTTVTVTS VL: QSALTQPASVSGSPGQSITISCTGTSSDVGVYNYVSWFQQHPGKAPKLMIYNVSKRPSGVSNRFSGSKSGNTASLTISGLQAEDEADYYCCSYAGSSTWVFGGGTNLTVL    f
4. CL-141786 (antibody, V domains shown, human IgG1, HEK (Expi293F) culture supernatant) VH: QVQLLQSGAEVKKPGASVKVSCKASGYTFTNYAMHWLRQAPGQRLEWMGWINAGNGYTKYSQKFQGRVTITRDTSATTAYMDLSSLRSEDTAVYYCARDNYYDSNVYNSYYFYGMDVWGQGTTVTVSS VL: QSVLTQPASVSGPPGQSITISCTGTSSDVGNYNHVSWYQQHPDKAPKLMIYDVNKRPSGISNRFSGSKSGNTASLTISGLQAEDEADYYCCSYAGSSTWVFGGGTKLTVL    t

// next entry
Please state whether kon is below 500000 M⁻¹ s⁻¹ for CL-141805 (antibody, V domains shown, human IgG1, HEK (Expi293F) culture supernatant) VH: QVQLVQSGAEVKKPGASVKVSCKASGYTFTNYAMHWVRQAPGQRLEWMGWINAGNGNTKYSQNFQGRVTITRDTSASTAYMELSSLRSEDTAVYYCARDEYYASGSYYDYYYYGMDVWGQGTTVTVTS VL: QSALTQPASVSGSPGQSITISCTGTSSDVGVYNYVSWFQQHPGKAPKLMIYNVSKRPSGVSNRFSGSKSGNTASLTISGLQAEDEADYYCCSYAGSSTWVFGGGTNLTVL
f
